Test system: P388 leukemia ip, CD2F1 mice, survival T/C
test: NCI In Vivo Anticancer Drug Screen. Data for tumor model P388 Leukemia (intraperitoneal) in CD2F1 (CDF1) mice
test_conditions: endpoint: median survival time; dose: 200.0 mg/kg/injection; schedule: Q04DX003 (ip); vehicle: saline; higher = longer survival
Experimental: The antitumor activity of compounds was measured in mice bearing transplantable tumors. Survival or tumor size were measured and the results are expressed as the measurement made in the treated group (T) divided by the measurement made in the vehicle treated control group (C). The tumor model used in this assay is P388 Leukemia (intraperitoneal) in CD2F1 (CDF1) mice
Toxic doses and inconclusive results are not listed.
metric: T/C

- O=C1c2ccccc2C(=O)N1CS(=O)(=O)CN1C(=O)c2ccccc2C1=O: 93 % of control
- Cn1c2nc(-[n+]3cccc(CO)c3)nc-2c([O-])n(C)c1=O: 99 % of control
- CC(=O)N1C=[N+](C)C(C)(C)C1: 90 % of control

// field: T/C; key: "[O-][n+]1cc2ccccc2c2ccccc21" ; value = 100 % of control

// field: T/C; key: "CSc1ccc2c(=O)c(C(=O)O)c[nH]c2c1" ; value = 99 % of control

// field: T/C; key: "O=[N+]([O-])c1nc(-[n+]2ccccc2)[n-]c1Br" ; value = 100 % of control

// field: T/C; key: "CCOC(=O)C(=CNc1cc(C)ccn1)C(=O)OCC" ; value = 100 % of control

// field: T/C; key: "O=[N+]([O-])c1cc(Br)cc2c1[nH]c1nc3ccc(C(F)(F)F)cc3nc12" ; value = 95 % of control

// field: T/C; key: "CSN(C)C(=O)Nc1cc(Cl)ccc1Cl" ; value = 92 % of control

Taken from PubChem BioAssay AID330.
